We begin with a simple list: items and their reported IC50.
Test system: A549
Assay: Cytotoxicity against human A549 cells after 72 hrs by alamar blue assay
Type: functional, cell-based
Settings: A549, 72 h

Record excerpt, results attached:
1) CC(C)OC(=O)/C=C/c1ccc(O)c(O)c1 ... > 50 µM
2) O=C(/C=C/c1ccc(OCCCCCCO[N+](=O)[O-])c(O)c1)OCCCCCCO[N+](=O)[O-] ... > 50 µM
3) COc1cc(/C=C/C(=O)OCCCCCO[N+](=O)[O-])ccc1OCCCCCO[N+](=O)[O-] ... > 50 µM
4) COc1cc(/C=C/C(=O)OCc2cccc(OCc3c(-c4ccccc4)no[n+]3[O-])c2)ccc1O ... > 50 µM

Query: IC50; subject: CCCCCOC(=O)/C=C/c1ccc(O)c(OC)c1
> 50 µM

Quick one: IC50 for CCOC(=O)/C=C/c1ccc(O)c(OC)c1 [ETHYL FERULATE] ?
12.5 µM

// query IC50 value for entry COC(=O)/C=C/c1ccc(O)c(OC)c1
> 50 µM

Need IC50 of COc1cc(/C=C/C(=O)OCCCCCO[N+](=O)[O-])ccc1O , thanks.
6.39 µM

So what's the measured IC50 for this one? COc1cc(/C=C/C(=O)OCCCCO[N+](=O)[O-])ccc1O
8.82 µM

GET /values?readout=IC50&item= COc1cc(/C=C/C(=O)OCCC(C)C)ccc1O [ISOPENTYL FERULATE]
43.6 µM

Reported IC50 for COc1cc(/C=C/C(=O)OCCCO[N+](=O)[O-])ccc1O : what is it?
13.2 µM

What value of measured IC50 is listed for O=C(/C=C/c1ccc(OCCCO[N+](=O)[O-])c(O)c1)OCCCO[N+](=O)[O-] ?
0.69 µM

If you can, please state the reported IC50 value of COc1cc(/C=C/C(=O)OCCCO[N+](=O)[O-])ccc1OCCCO[N+](=O)[O-] .
15.8 µM

Please give the measured IC50 for this compound: O=C(/C=C/c1ccc(OCCCCO[N+](=O)[O-])c(O)c1)OCCCCO[N+](=O)[O-]
0.41 µM

# query: IC50 of entry COc1cc(/C=C/C(=O)OCCCCOc2no[n+]([O-])c2S(=O)(=O)c2ccccc2)ccc1O
0.4 µM

Would you mind telling me what IC50 value was observed for COc1cc(/C=C/C(=O)OC/C=C/CO[N+](=O)[O-])ccc1O ?
5.95 µM

For COc1cc(/C=C/C(=O)OCC(C)C)ccc1O , what is its reported IC50?
34.6 µM

Consider the compound COc1cc(/C=C/C(=O)OCCCCO[N+](=O)[O-])ccc1OCCCCO[N+](=O)[O-] and give its measured IC50.
> 50 µM

If you can, please state the reported IC50 value of COc1cc(/C=C/C(=O)OCCOc2no[n+]([O-])c2S(=O)(=O)c2ccccc2)ccc1O .
> 50 µM

For the compound shown here, COc1cc(/C=C/C(=O)OC(C)C)ccc1O , give the reported IC50.
> 50 µM

// lookup IC50 for COc1cc(/C=C/C(=O)OC(C)CCOc2no[n+]([O-])c2S(=O)(=O)c2ccccc2)ccc1O (stereo unspecified)
0.42 µM

Fill in the blank: the reported IC50 of O=C(/C=C/c1ccc(O)c(O)c1)OC/C=C/CO[N+](=O)[O-] is ____.
0.4 µM

Form field: reported IC50 of CCOC(=O)/C=C/c1ccc(O)c(O)c1 [ETHYL CAFFEATE]
7.22 µM

Look up IC50: COc1cc(/C=C/C(=O)OCCCCCCO[N+](=O)[O-])ccc1OCCCCCCO[N+](=O)[O-]
> 50 µM

Need IC50, item O=C(/C=C/c1ccc(O)c(O)c1)OCc1c(-c2ccccc2)no[n+]1[O-]
2.71 µM

Requested field: IC50. Item: O=C(/C=C/c1ccc(OCCCCCO[N+](=O)[O-])c(O)c1)OCCCCCO[N+](=O)[O-]
0.45 µM
